Ref: patent US7846959B2

- Target Or System: UniProt P04049
- Sequence (P04049 whole entry): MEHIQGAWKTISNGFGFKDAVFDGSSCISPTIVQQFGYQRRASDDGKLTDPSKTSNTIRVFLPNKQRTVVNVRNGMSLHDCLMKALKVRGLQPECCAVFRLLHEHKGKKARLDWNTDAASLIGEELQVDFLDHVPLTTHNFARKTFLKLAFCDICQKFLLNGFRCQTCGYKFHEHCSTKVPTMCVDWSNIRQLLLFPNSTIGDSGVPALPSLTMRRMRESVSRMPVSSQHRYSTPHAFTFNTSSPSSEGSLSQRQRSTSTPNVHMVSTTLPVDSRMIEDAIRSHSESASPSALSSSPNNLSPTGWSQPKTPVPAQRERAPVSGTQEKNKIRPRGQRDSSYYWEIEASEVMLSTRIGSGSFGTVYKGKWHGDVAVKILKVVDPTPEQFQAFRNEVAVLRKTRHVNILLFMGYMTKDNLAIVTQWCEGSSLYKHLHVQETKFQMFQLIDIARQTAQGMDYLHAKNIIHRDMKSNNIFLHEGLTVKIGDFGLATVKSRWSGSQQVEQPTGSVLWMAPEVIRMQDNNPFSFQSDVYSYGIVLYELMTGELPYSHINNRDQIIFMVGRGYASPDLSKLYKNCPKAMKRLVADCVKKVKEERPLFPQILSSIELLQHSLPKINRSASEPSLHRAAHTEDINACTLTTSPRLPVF
- Protocol Notes: Luciferase-coupled chemiluminescence kinase assay (ATP consumption), c-Raf
- Format: biochemical
- Assay Context: read-out: cRaf-1 IC50
- Experimental: Tyrosine kinase activity is determined by 1) measurement of kinase-dependent ATP consumption by in the presence of a generic substrate such as […], tyrosine (pEY), by luciferase/luciferin-mediated chemiluminescence or; 2) incorporation of radioactive phosphate derived from ^33P-ATP into a generic substrate which has been adsorbed onto the well surface of polystyrene microtiter plates. Phosphorylated substrate products are quantified by scintillation spectrometry. […]
Readout Type: IC50

CC(C)C(=O)Nc1nc2ccc(C3(O)c4ccccc4C(=O)N3Cc3ccccc3)cc2[nH]1 (stereo not drawn): 100 to 1000 nM
O=C1COc2ccc(C3(O)c4ccccc4C(=O)N3Cc3ccccc3C(F)(F)F)cc2N1 (stereo not drawn): ≥ 10000 nM
COC(=O)Nc1nc2cc(C3(O)c4ccccc4C(=O)N3c3ccc(Cl)cc3)ccc2[nH]1 (stereo not drawn): < 100 nM
COCCOc1cccc(N2C(=O)c3ccccc3C2(O)c2ccc3[nH]c(NC(=O)OC)nc3c2)c1 (stereo not drawn): 1000 to 10000 nM
COC(=O)Nc1nc2cc(C3(O)c4ccccc4C(=O)N3c3cc(C)cc(C(F)(F)F)c3)ccc2[nH]1 (stereo not drawn): < 100 nM
COC(=O)Nc1nc2cc(C3(O)c4ccccc4C(=O)N3c3ccccc3OC(F)(F)F)ccc2[nH]1 (stereo not drawn): 100 to 1000 nM
COC(=O)Nc1nc2cc(C3(O)c4ccccc4C(=O)N3c3cc(F)cc(Cl)c3)ccc2[nH]1 (stereo not drawn): < 100 nM
C=Cc1cccc(N2C(=O)c3ccccc3C2(O)c2ccc3[nH]c(NC(=O)OC)nc3c2)c1 (stereo not drawn): < 100 nM
COC(=O)Nc1nc2cc(C3(O)c4ccccc4C(=O)N3c3cccc(S(C)(=O)=O)c3)ccc2[nH]1 (stereo not drawn): 100 to 1000 nM
